Recorded total protein half-life in vivo by entry
protocol_summary: total protein half-life in vivo (active degradation + dilution); higher = more stable protein
protocol_conditions: wild type E. coli NCM3722; growth: P-lim chemostat; doubling time 12 h
Answer in h, number only, no unit symbol.

Take a look at these entries with their results.
query: Fill in: total protein half-life in vivo of MKGRWVKYLLMGTVVAMLAACSSKPTDRGQQYKDGKFTQPFSLVNQPDAVGAPINAGDFAEQINHIRNSSPRLYGNQSNVYNAVQEWLRAGGDTRNMRQFGIDAWQMEGADNYGNVQFTGYYTPVIQARHTRQGEFQYPIYRMPPKRGRLPSRAEIYAGALSDKYILAYSNSLMDNFIMDVQGSGYIDFGDGSPLNFFSYAGKNGHAYRSIGKVLIDRGEVKKEDMSMQAIRHWGETHSEAEVRELLEQNPSFVFFKPQSFAPVKGASAVPLVGRASVASDRSIIPPGTTLLAEVPLLDNNGKFNGQYELRLMVALDVGGAIKGQHFDIYQGIGPEAGHRAGWYNHYGRVWVLKTAPGAGNVFSG [P0A935] is ___
result: 6.57

query: Fill in: total protein half-life in vivo of MPWIQLKLNTTGANAEDLSDALMEAGAVSITFQDTHDTPVFEPLPGETRLWGDTDVIGLFDAETDMNDVVAILENHPLLGAGFAHKIEQLEDKDWEREWMDNFHPMRFGERLWICPSWRDVPDENAVNVMLDPGLAFGTGTHPTTSLCLQWLDSLDLTGKTVIDFGCGSGILAIAALKLGAAKAIGIDIDPQAIQASRDNAERNGVSDRLELYLPKDQPEEMKADVVVANILAGPLRELAPLISVLPVSGGLLGLSGILASQAESVCEAYADSFALDPVVEKEEWCRITGRKN [P0A8T1] is ___
result: 10.9

query: Fill in: total protein half-life in vivo of MAAVNLRHIEIFHAVMTAGSLTEAAHLLHTSQPTVSRELARFEKVIGLKLFERVRGRLHPTVQGLRLFEEVQRSWYGLDRIVSAAESLREFRQGELSIACLPVFSQSFLPQLLQPFLARYPDVSLNIVPQESPLLEEWLSAQRHDLGLTETLHTPAGTERTELLSLDEVCVLPPGHPLAVKKVLTPDDFQGENYISLSRTDSYRQLLDQLFTEHQVKRRMIVETHSAASVCAMVRAGVGISVVNPLTALDYAASGLVVRRFSIAVPFTVSLIRPLHRPSSALVQAFSGHLQAGLPKLVTSLDAILSSATTA is ___
result: 13.1

query: Fill in: total protein half-life in vivo of MKKFAAVIAVMALCSAPVMAAEQGGFSGPSATQSQAGGFQGPNGSVTTVESAKSLRDDTWVTLRGNIVERISDDLYVFKDASGTINVDIDHKRWNGVTVTPKDTVEIQGEVDKDWNSVEIDVKQIRKVNP [P0ADU5] is ___
result: 7.98

query: Fill in: total protein half-life in vivo of MSESLHLTRNGSILEITLDRPKANAIDAKTSFEMGEVFLNFRDDPQLRVAIITGAGEKFFSAGWDLKAAAEGEAPDADFGPGGFAGLTEIFNLDKPVIAAVNGYAFGGGFELALAADFIVCADNASFALPEAKLGIVPDSGGVLRLPKILPPAIVNEMVMTGRRMGAEEALRWGIVNRVVSQAELMDNARELAQQLVNSAPLAIAALKEIYRTTSEMPVEEAYRYIRSGVLKHYPSVLHSEDAIEGPLAFAEKRDPVWKGR is ___
result: 10.5

Could you now consider this next sequence?
query: Fill in: total protein half-life in vivo of MKHDHFVVQSPDKPAQQLLLLFHGVGDNPVAMGEIGNWFAPLFPDALVVSVGGAEPSGNPAGRQWFSVQGITEDNRQARVDAIMPTFIETVRYWQKQSGVGANATALIGFSQGAIMVLESIKAEPGLASRVIAFNGRYASLPETASTATTIHLIHGGEDPVIDLAHAVAAQEALISAGGDVTLDIVEDLGHAIDNRSMQFALDHLRYTIPKHYFDEALSGGKPGDDDVIEMM is ___
result: 6.94
